B1: Zinc finger homeobox protein 3, residues 2643 to 2698; numbered along this chain, Q15911 (parent)
chain: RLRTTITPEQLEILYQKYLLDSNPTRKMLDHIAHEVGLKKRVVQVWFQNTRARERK

- Variants of: B1
- Test summary: abundance fitness (aPCA) (normalised: wild type 0, dead -1); higher = more abundant; growth selection in yeast, the domain comes from the species named
- Conditions used: Homo sapiens
Measurement label: abundance fitness

Give the reported value of abundance fitness for this record: `A52G`
-0.037

Retrieve abundance fitness measured for `L29G` and print it.
-0.683

Return value of abundance fitness for input `I13S` , no commentary.
-0.184

State its abundance fitness for this variant: `I32N`
-1.25

Specify measured abundance fitness for `R3H` .
0.199

Read off the recorded abundance fitness for `T50Y`
-0.048

Name the recorded abundance fitness of the variant listed here: `R3A`
0.493

Check the records and state abundance fitness for `L29C`
-0.056

Retrieve abundance fitness measured for `F47I` and print it.
-1.01

Return abundance fitness (reported value) for this variant: `W46D`
-0.815

Return reported abundance fitness. Input variant: `T4E`
0.439

Provide measured abundance fitness value, entry: `G37R`
-0.27

Hello, please tell me recorded abundance fitness for this one: `T50F`
-0.322

State its abundance fitness: `H31P`
-0.836

Tell us which abundance fitness value is on record for `L19Q`
-0.233

Look up and report measured abundance fitness for this entry: `L20P`
-1.08

Annotate the variant `V42D` with its measured abundance fitness.
0.226

// Input: `K39Y` . Output its abundance fitness only.
-0.114

Return value of abundance fitness for input `V45A` , no commentary.
-0.365

Give a short answer stating reported abundance fitness for `N23Q` .
0.066

Entry `T50A` needs its abundance fitness filled in; supply it.
0.056

Item `H34I` : provide abundance fitness
-0.632

Quickly give me recorded abundance fitness for `E54N`
-0.531

Read off the recorded abundance fitness for `Q10S`
-0.48

Kindly indicate its recorded abundance fitness. Item: `I13E`
-0.339

Give the measured abundance fitness for `P24L`
-0.79

// Input: `D30Y` . Output its abundance fitness only.
-0.269

Return value of abundance fitness for input `N49G` , no commentary.
-0.234

Provide abundance fitness value for the following variant: `R53H`
-0.258

Look up and report measured abundance fitness for this entry: `Q16N`
-0.226

Entry `Q48A` needs its abundance fitness filled in; supply it.
0.122

Identify the reported abundance fitness for the following entry. `T25N`
-0.206

Find the measured abundance fitness of `K39R` and report it.
-0.012

Quickly give me recorded abundance fitness for `V45W`
-0.317

Read off the recorded abundance fitness for `L20Q`
0.109

Entry `L20W` needs its abundance fitness filled in; supply it.
-0.227

Give the reported value of abundance fitness for this record: `L20N`
-0.27

Identify abundance fitness associated with the variant `R26E`
0.419

Look up and report measured abundance fitness for this entry: `K39T`
0.373

// fetch abundance fitness given entry `L14A`
-0.908

Output measured abundance fitness for this item: `L20H`
-0.286

Specify abundance fitness for `D30P` and stop.
-0.543

Look up and report measured abundance fitness for this entry: `E12C`
-0.111

Consider the variant `Q48W` . State its measured abundance fitness.
-0.217

Indicate the recorded abundance fitness value for this variant: `L38W`
-0.746

Supply reported abundance fitness belonging to this variant: `R1K`
0.027

Give a short answer stating reported abundance fitness for `R51D` .
-0.474

Look up and state reported abundance fitness for `T7E`
0.087

Annotate the variant `H34G` with its measured abundance fitness.
0.062

Give abundance fitness for `R53S`
0.133

Give recorded abundance fitness. `R55C`
0.263

Tell us which abundance fitness value is on record for `S22M`
-0.247

Please report the measured abundance fitness for `Q16D`
-0.246

Provide abundance fitness value for the following variant: `T7A`
0.08

Note down abundance fitness recorded for `T5C`
-0.107

Report abundance fitness, nothing else, for this variant: `I32F`
-0.108

# return recorded abundance fitness for entry `A33M`
-0.832

Specify abundance fitness for `D21P` and stop.
-0.604

Kindly indicate its recorded abundance fitness. Item: `L14Q`
-0.895

Name the recorded abundance fitness of the item `V42A` in your answer.
-0.123

Give a short answer stating reported abundance fitness for `T50D` .
-0.731

Identify measured abundance fitness corresponding to `K56L`
-0.527

Indicate its recorded abundance fitness; the variant in question is `R1I`
-0.063

Look up and report measured abundance fitness for this entry: `T25Q`
-0.505

Provide abundance fitness value for the following variant: `Q48F`
-0.802

Tell me abundance fitness reported for `L14W`
-0.758

Give the reported abundance fitness for this variant. `T50Q`
0.243

Find the measured abundance fitness of `I13W` and report it.
-0.172

Read the entry `V36M` and write its reported abundance fitness.
-0.427

Quickly give me recorded abundance fitness for `H31Q`
0.169

Return the recorded abundance fitness value; entry: `I32G`
-0.77

Name the recorded abundance fitness of the variant listed here: `R3N`
0.173

Look up and report measured abundance fitness for this entry: `N23H`
-0.354

Return reported abundance fitness. Input variant: `Q48V`
-0.147

Output measured abundance fitness for this item: `R55Y`
0.113

Please supply the value of reported abundance fitness for the item `Y18M`
-0.373

Supply measured abundance fitness of `R55F` in your reply.
0.004

Answer with reported abundance fitness of `V43Y`
-0.807

Report abundance fitness, nothing else, for this variant: `A52I`
-0.639

Supply reported abundance fitness belonging to this variant: `T5D`
0.075

Please supply the value of reported abundance fitness for the item `E12Y`
-0.454

Identify abundance fitness associated with the variant `V42M`
-0.068

Identify the reported abundance fitness for the following entry. `L2W`
-0.134
